- Target under test: human adenosine A2A receptor (Homo sapiens, UniProt P29274)
- Construct: expressed in transfected cells; host or cells: CHO cells, semliki forest virus expression system; membrane preparation
- Sequence (P29274 whole entry): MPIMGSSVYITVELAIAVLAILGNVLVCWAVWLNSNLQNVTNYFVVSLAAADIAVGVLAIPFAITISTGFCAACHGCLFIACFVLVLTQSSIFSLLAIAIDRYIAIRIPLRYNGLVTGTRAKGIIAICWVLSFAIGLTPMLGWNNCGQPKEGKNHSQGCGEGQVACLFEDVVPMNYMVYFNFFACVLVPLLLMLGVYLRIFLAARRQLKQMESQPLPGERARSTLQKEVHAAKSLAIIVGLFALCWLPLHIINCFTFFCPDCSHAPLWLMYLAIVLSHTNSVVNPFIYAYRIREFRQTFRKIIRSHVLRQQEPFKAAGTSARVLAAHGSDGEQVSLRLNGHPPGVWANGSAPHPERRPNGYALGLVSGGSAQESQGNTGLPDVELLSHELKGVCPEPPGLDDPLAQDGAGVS
- Assay summary: Human adenosine A2A receptor [3H]-SCH-583261 binding assay (SPA, CHO cell membranes)
- Run conditions: [3H]-SCH-583261 1 nM; membranes of CHO cells expressing the recombinant receptor; Ki by Cheng-Prussoff equation; read-out: hA2 (pKi) (converted)
Exam item: assign y to entries whose Ki is below 2 nM and n to entries at or above 2 nM. Note that a value of exactly 2 nM receives n.

Look over these answered cases.
Confirm or reject: Ki of COc1cc(C(=O)Nc2nc3c(OC)ccc(-c4ccccc4)c3s2)ccn1 lies strictly below 2 nM
y

Please do the same for COc1ccc(N2CCOCC2)c2sc(NC(=O)c3ccnc(N(C)CCc4ccccc4)c3)nc12 as well.
n

Please do the same for COc1ccc(N2CCOCC2)c2sc(NC(=O)c3ccnc(N(C)CCN(C)C)c3)nc12 as well.
y

---
Confirm or reject: Ki of CCCN(C)c1cc(C(=O)Nc2nc3c(OC)ccc(N4CCOCC4)c3s2)ccn1 lies strictly below 2 nM
y

Please do the same for COc1ccc(N2CCOCC2)c2sc(NC(=O)c3ccnc(N(C)C4CCCCC4)c3)nc12 as well.
y

Please do the same for COc1ccc(N2CCOCC2)c2sc(NC(=O)c3ccnc(NCc4ccccn4)c3)nc12 as well.
y
